Biological target: DQA1*0101:DQB1*0501 (Homo sapiens, UniProt P01909+P01920, A157S/A45G/A70V/C70R/D89V/E106S/E118A/E183D/E77G/F83G/G63E/H151Q/H199R/H252R/H253Q/I129T/I235V/I88M/INS77G/K197Q/L107V/L117V/L119Y/L178F/L71W/L74F/L85Q/L91A/L98M/M46L/N214S/P87R/Q116E/Q256R/Q57E/Q76K/R102G/R240Q/R75S/R78G/S102Y/S185I/S41F/S97I/T103A/T109R/T121G/T122I/T172A/T86R/V148I/V68A/V73E/Y34C/Y58G/Y62H)
Construct: purchased ProImmune (REVEAL technology)
Sequence (P01909 with tags, fused parts or gaps with the stated changes, other chains not shown): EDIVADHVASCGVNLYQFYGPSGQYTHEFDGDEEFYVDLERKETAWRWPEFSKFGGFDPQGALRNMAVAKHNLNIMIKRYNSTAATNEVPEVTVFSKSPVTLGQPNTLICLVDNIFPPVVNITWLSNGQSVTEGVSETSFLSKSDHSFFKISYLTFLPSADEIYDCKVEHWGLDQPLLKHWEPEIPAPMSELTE
Format: binding
Quantity: REVEAL 0 hrs

Here's what some known entries look like.
Chain Sequence | Quantity | Value
ALSRGFGSGIITSNA [compound 18] | REVEAL 0 hrs | 0.0%
ASGNHAAGILTMGRR (listed as Homo sapiens) [compound 15, Orexin fragment HCRT87-99] | REVEAL 0 hrs | 0.1%
AMERNAGSGIIISDT [compound 16] | REVEAL 0 hrs | 0.1%
GAGNHAAGILTLGKR (listed as Homo sapiens) [compound 14, Orexin fragment HCRT56-68] | REVEAL 0 hrs | 0.0%

Please find the next sequence below.
input: Would you kindly share the measured REVEAL 0 hrs for LILYDKEEMRRIWRQ [compound 4] ?
output: 0.1%

###

Molecular target: DQA1*0102:DQB1*0602 (Homo sapiens, UniProt P01909+P01920, A157G/A45G/C70R/E118A/E183D/E77G/F83G/G63E/H151Q/H199R/H252R/H253Q/I129T/I235V/I88M/INS77G/K197Q/L117V/L119F/L178F/L71W/L74F/L85Q/L91A/L98M/N214S/P87R/Q116E/Q76K/R102G/R240Q/R75S/R78G/S102Y/S185I/S41F/S97I/T121G/T122I/T172A/T86R/V229M/V68A/V73E/Y34C/Y41F/Y58L)
Construct: purchased ProImmune (REVEAL technology)
Sequence (P01909 with tags, fused parts or gaps with the stated changes, other chains not shown): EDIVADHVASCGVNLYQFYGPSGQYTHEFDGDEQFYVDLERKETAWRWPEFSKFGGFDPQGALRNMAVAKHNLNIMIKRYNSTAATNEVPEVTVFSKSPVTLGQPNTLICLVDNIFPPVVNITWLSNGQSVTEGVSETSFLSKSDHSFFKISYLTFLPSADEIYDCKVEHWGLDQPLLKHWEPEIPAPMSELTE
Format: binding
The label depends only on REVEAL 0 hrs: class 1 if it is at least 0.9%, class 0 if it is smaller.

Below are worked cases with known answers.
Chain Sequence | Qualitative Label
AMERNAGSGIIISDT [compound 16] | class 0
GAGNHAAGILTLGKR (listed as Homo sapiens) [compound 14, Orexin fragment HCRT56-68] | class 0
RELILYDKEEMRRIWRQANNG [compound 2] | class 1
LILYDKEEMRRIWRQ [compound 4] | class 0
SGAAGAAVKGVGTMV [compound 6] | class 0
LILYDKEERRRRWRQ [compound 9] | class 1
ALNRGSGSGIITSDA [compound 17] | class 0
MNLPSMKVSWAAVTL [compound 12] | class 1
ASGNHAAGILTMGRR (listed as Homo sapiens) [compound 15, Orexin fragment HCRT87-99] | class 0

# input for lookup
input: Given IDPFKLLQNSQVVSL [compound 8] , state whether its REVEAL 0 hrs is at least 0.9%.
output: class 0
